Tested on: G-361
protocol-details: cells
Assay type: functional, cell-based
condition-description: Homo sapiens
assay-endpoint: IC50 (µM)
Record the value in µM, omitting the unit from your answer.

molecule	IC50 / µM
CCCCCCCCCCCC1=C(O)C(=O)C=C(O)C1=O [EMBELIN]	5.9

Now for another entry.
Bench note, G-361: CO[C@@H]1[C@H](N(C)C(=O)c2ccccc2)C[C@H]2O[C@]1(C)n1c3ccccc3c3c4c(c5c6ccccc6n2c5c31)C(=O)NC4 [MIDOSTAURIN] , IC50 reads 0.209

* * *

System: SW626;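 note: growth inhibition of SW626 cells, measured with a cell viability assay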
protocol-details: cells
Type: functional, cell-based
condition-description: Homo sapiens
Description: SANGER: Inhibition of human SW626 cell growth in a cell viability assay.
assay-endpoint: IC50

Some solved cases for reference:
compound	obs-value
CCCCCCCCCCCC1=C(O)C(=O)C=C(O)C1=O [EMBELIN]	9.35 µM
O=C(NCCCNc1nc(Nc2cccc(NC(=O)N3CCCC3)c2)ncc1I)c1cccs1 [BX-795]	> 5 µM
CC1=C(/C=C/C(C)=C/C=C/C(C)=C/C(=O)O)C(C)(C)CCC1 [TRETINOIN]	> 10 µM
Cc1ccc(C(=O)Nc2ccc(CN3CCN(C)CC3)c(C(F)(F)F)c2)cc1C#Cc1cnc2cccnn12 [PONATINIB]	> 0.512 µM
CS(=O)(=O)N1CCN(Cc2cc3nc(-c4cccc5[nH]ncc45)nc(N4CCOCC4)c3s2)CC1 [PICTILISIB]	> 4 µM

Query CN(C)CCOc1ccc(-c2nc(-c3ccncc3)c(-c3ccc4c(c3)CC/C4=N\O)[nH]2)cc1 [SB590885] yields IC50 of > 5 µM

* * *

Form field: pIC50 (one value per entry).
System: KNS-81-FD;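 note: growth inhibition of KNS-81-FD cells, read out with a cell viability assay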
protocol-details: cells
Format: functional, cell-based, Homo sapiens
condition-description: Homo sapiens, KNS-81-FD
Description: SANGER: Inhibition of human KNS-81-FD cell growth in a cell viability assay.
pIC50: −log10 of the molar value.

Query `CN(NC(=O)CC(=O)NN(C)C(=S)c1ccccc1)C(=S)c1ccccc1` yields pIC50 of 7.76

Query C=CC(=O)N1CCCC(Nc2nc(Nc3ccc(N(C)C(=O)CC)cc3)nc3[nH]cnc23)C1 (stereo unspecified) yields pIC50 of < 4.99

Query `COc1cc(N2CCC(N3CCN(C)CC3)CC2)ccc1Nc1ncc(Cl)c(Nc2ccccc2S(=O)(=O)C(C)C)n1` yields pIC50 of < 5.70

Query `OC[C@H](Cc1ccccc1)Nc1nc(Oc2ccc3c(c2)CCC3)nc2c1ncn2Cc1ccc(-c2ccccc2)cc1` yields pIC50 of < 4.99

Query `COC(=O)[C@H](CCSC)NC(=O)c1ccc(NC[C@@H](N)CS)cc1-c1ccccc1` yields pIC50 of < 5.99

Query `NC1(c2ccc(-c3nc4ccn5c(=O)[nH]nc5c4cc3-c3ccccc3)cc2)CCC1` yields pIC50 of < 5.40

* * *

System: UO-31
protocol-details: cells
Format: functional, cell-based
condition-description: Homo sapiens
Description: SANGER: Inhibition of human U031 cell growth in a cell viability assay.
assay-endpoint: pIC50
The quantity pIC50 is defined as the negative base-10 logarithm of the molar concentration.

Query `CCCCCCCCCCCC1=C(O)C(=O)C=C(O)C1=O` yields pIC50 of 4.72

Query `NC(=O)Nc1cc(-c2cccc(F)c2)sc1C(=O)N[C@H]1CCCNC1` yields pIC50 of 6.32

Query `O=S(=O)(O)c1ccc2cc(/N=N/c3cc(S(=O)(=O)O)c4cccnc4c3O)ccc2c1` yields pIC50 of 4.87

* * *

Form field: pIC50 (one value per entry).
System: NOS-1
protocol-details: cells
Type: functional, cell-based, Homo sapiens
condition-description: Homo sapiens, NOS-1
Description: SANGER: Inhibition of human NOS-1 cell growth in a cell viability assay.
pIC50: −log10 of the molar value.

Some solved cases for reference:
compound	obs-value
O=S(=O)(O)c1ccc2cc(/N=N/c3cc(S(=O)(=O)O)c4cccnc4c3O)ccc2c1	< 4.80
Cc1cc(N2CCOCC2)cc2[nH]c(-c3c(NC[C@@H](O)c4cccc(Cl)c4)cc[nH]c3=O)nc12	7.13

Query O=C(NCCCNc1nc(Nc2cccc(NC(=O)N3CCCC3)c2)ncc1I)c1cccs1 [BX-795] yields pIC50 of < 5.30

Query NC(=O)c1ccc(N(C(N)=O)c2c(F)cccc2F)nc1-c1ccc(F)cc1F [VX-702] yields pIC50 of < 5.70

Query CC1(C)CCC(c2ccc(Cl)cc2)=C(CN2CCN(c3ccc(C(=O)NS(=O)(=O)c4ccc(N[C@H](CCN5CCOCC5)CSc5ccccc5)c(S(=O)(=O)C(F)(F)F)c4)cc3)CC2)C1 [NAVITOCLAX] yields pIC50 of < 5.70

Query Cc1ccc(-n2nc(C(C)(C)C)cc2NC(=O)Nc2ccc(OCCN3CCOCC3)c3ccccc23)cc1 [DORAMAPIMOD] yields pIC50 of < 5.00

Query CO[C@@H]1[C@H](N(C)C(=O)c2ccccc2)C[C@H]2O[C@]1(C)n1c3ccccc3c3c4c(c5c6ccccc6n2c5c31)C(=O)NC4 [MIDOSTAURIN] yields pIC50 of < 6.29

Query Nc1ccccc1NC(=O)c1ccc(CNC(=O)OCc2cccnc2)cc1 [ENTINOSTAT] yields pIC50 of 6.71

* * *

Tested on: TGBC1TKB;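 note: growth inhibition of TGBC1TKB cells, read out by a cell viability assay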
protocol-details: cells
Format: functional, cell-based, Homo sapiens
condition-description: Homo sapiens, TGBC1TKB
Description: SANGER: Inhibition of human TGBC1TKB cell growth in a cell viability assay.
Form field: IC50 (one value per entry).

Some solved cases for reference:
compound	IC50
CN(NC(=O)CC(=O)NN(C)C(=S)c1ccccc1)C(=S)c1ccccc1	33.3 nM
Nc1ccccc1NC(=O)c1ccc(CNC(=O)OCc2cccnc2)cc1	> 5000 nM
C[C@@H](Oc1cc(-c2cnn(C3CCNCC3)c2)cnc1N)c1c(Cl)ccc(F)c1Cl	> 2000 nM
C=CC(=O)N1CCCC(Nc2nc(Nc3ccc(N(C)C(=O)CC)cc3)nc3[nH]cnc23)C1 (stereo not drawn)	> 10200 nM

Query `C/C(=C\c1csc(C)n1)[C@@H]1C[C@@H]2O[C@]2(C)CCC[C@H](C)[C@H](O)[C@@H](C)C(=O)C(C)(C)[C@@H](O)CC(=O)O1` yields IC50 of > 32 nM

Query `O=S(=O)(O)c1ccc2cc(/N=N/c3cc(S(=O)(=O)O)c4cccnc4c3O)ccc2c1` yields IC50 of > 16000 nM

Query `NC(=O)c1cccc(-c2cc(Nc3ccc(OC(F)(F)F)cc3)ncn2)c1` yields IC50 of > 1280 nM

Query `CC1(C)CCC(c2ccc(Cl)cc2)=C(CN2CCN(c3ccc(C(=O)NS(=O)(=O)c4ccc(N[C@H](CCN5CCOCC5)CSc5ccccc5)c(S(=O)(=O)C(F)(F)F)c4)cc3)CC2)C1` yields IC50 of 1140 nM

* * *

Tested on: BFTC-909
protocol-details: cells
Format: functional, cell-based
condition-description: Homo sapiens
Description: SANGER: Inhibition of human BFTC-909 cell growth in a cell viability assay.
pIC50: −log10 of the molar value.
assay-endpoint: pIC50

Some solved cases for reference:
NC(=O)Nc1cc(-c2cccc(F)c2)sc1C(=O)N[C@H]1CCCNC1 6.23
O=C(NCCCNc1nc(Nc2cccc(NC(=O)N3CCCC3)c2)ncc1I)c1cccs1 5.33
Cc1ccc(C(=O)Nc2ccc(CN3CCN(C)CC3)c(C(F)(F)F)c2)cc1C#Cc1cnc2cccnn12 < 6.29

Query `NC(=O)c1ccc(N(C(N)=O)c2c(F)cccc2F)nc1-c1ccc(F)cc1F` yields pIC50 of < 5.70

Query `COC(=O)[C@H](CCSC)NC(=O)c1ccc(NC[C@@H](N)CS)cc1-c1ccccc1` yields pIC50 of < 5.99

* * *

Tested on: D283 Med
protocol-details: cells
Format: functional, cell-based, Homo sapiens
condition-description: Homo sapiens, D283 Med
Description: SANGER: Inhibition of human D-283MED cell growth in a cell viability assay.
assay-endpoint: IC50

COc1cc(N2CCC(N3CCN(C)CC3)CC2)ccc1Nc1ncc(Cl)c(Nc2ccccc2S(=O)(=O)C(C)C)n1 1.22 µM
O=C1NC(=O)c2c1c(-c1ccccc1Cl)cc1[nH]c3ccc(O)cc3c21 > 2 µM
Cc1ccc(C(=O)Nc2ccc(CN3CCN(C)CC3)c(C(F)(F)F)c2)cc1C#Cc1cnc2cccnn12 > 0.512 µM
CN(C)CCOc1ccc(-c2nc(-c3ccncc3)c(-c3ccc4c(c3)CC/C4=N\O)[nH]2)cc1 > 5 µM
COc1ccc(-c2cc3nccn3c(Nc3ncccc3C(N)=O)n2)cc1OC > 8 µM

Now for another entry.
Query `CN(NC(=O)CC(=O)NN(C)C(=S)c1ccccc1)C(=S)c1ccccc1` yields IC50 of 0.0409 µM

* * *

Tested on: SCLC-21H
protocol-details: cells
Assay type: functional, cell-based, Homo sapiens
condition-description: sclc-21h
Description: SANGER: Inhibition of human SCLC-21H cell growth in a cell viability assay.
Where a SMILES comes first, the peptide text is derived from it. The star is where a group is joined. Cbz = O=C(OCc1ccccc1)*
assay-endpoint: IC50

Query CC(C)C[C@@H](C=O)NC(=O)[C@H](CC(C)C)NC(=O)[C@H](CC(C)C)NC(=O)OCc1ccccc1 [MG-132] (Cbz-Leu-Leu-Leu-aldehyde) yields IC50 of > 1000 nM

* * *

Form field: pIC50 (one value per entry).
Tested on: IM-9
protocol-details: SANGER: Inhibition of human IM-9 cell growth in a cell viability assay.
Type: functional, cell-based
condition-description: Homo sapiens, IM-9
pIC50: −log10 of the molar value.

Some solved cases for reference:
molecule	pIC50
O=S(=O)(O)c1ccc2cc(/N=N/c3cc(S(=O)(=O)O)c4cccnc4c3O)ccc2c1	< 4.80
C[C@@H](Oc1cc(-c2cnn(C3CCNCC3)c2)cnc1N)c1c(Cl)ccc(F)c1Cl [CRIZOTINIB]	< 5.70
C=CC(=O)N1CCCC(Nc2nc(Nc3ccc(N(C)C(=O)CC)cc3)nc3[nH]cnc23)C1 (centres undefined)	< 4.99

Now for another entry.
Query `COc1ccc(-c2cc3nccn3c(Nc3ncccc3C(N)=O)n2)cc1OC` yields pIC50 of < 5.10
